// reported protein stability index for each item listed
B1: PLAGL1 (parent)
chain: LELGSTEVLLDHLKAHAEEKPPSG

Variants of: B1
Experiment: protein stability index of a GFP-peptide fusion (GPS, HEK-293T) (PSI 1-6); higher = more stable;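 further: lentivirally expressed fusions sorted by FACS into six bins by GFP to DsRed ratio, PSI derived from sequencing read proportions per bin multiplied by bin number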
Conditions: c terminus: a fixed tail appended
I only need the number, thanks.

Below, each entry is followed by its recorded protein stability index result.
> print(dat)
   variant.spec           endpoint.label  reported.measurement
1          E18Q  protein stability index                  3.94
2           L9F  protein stability index                  4.79
3           V8T  protein stability index                     5
4           S5H  protein stability index                  4.84

Query: For the variant "T6R" , give its measured protein stability index value.
Reply: 4.57

Query: For the variant "T6L" , give its measured protein stability index value.
Reply: 2.84

Query: For the variant "H12Y" , give its measured protein stability index value.
Reply: 2.44
